Target: T1, terbium-labelled SNAP-CXCR4 on HEK-293 cells (Cisbio C1TT1CXCR4) (human, UniProt P61072 1-352 (Pan troglodytes entry), terbium label on the SNAP tag)
T1 construct: Bought assay-ready cells; also called CXCR4 expressing cells; not shown: SNAP tag
T1 sequence (P61072 whole entry): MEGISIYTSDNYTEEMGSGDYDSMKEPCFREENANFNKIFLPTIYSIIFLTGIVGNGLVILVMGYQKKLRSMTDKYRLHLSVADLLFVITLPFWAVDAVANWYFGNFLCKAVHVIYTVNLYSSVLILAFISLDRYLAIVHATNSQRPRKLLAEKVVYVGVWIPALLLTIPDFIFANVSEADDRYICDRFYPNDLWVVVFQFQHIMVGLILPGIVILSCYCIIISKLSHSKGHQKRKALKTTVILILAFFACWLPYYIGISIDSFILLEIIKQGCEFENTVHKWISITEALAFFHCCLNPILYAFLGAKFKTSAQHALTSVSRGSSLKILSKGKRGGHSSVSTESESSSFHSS
Test: TR-FRET (Tag-lite) competition with AlexaFluor 647-CXCL12 on terbium-labelled SNAP-CXCR4 HEK-293 cells
Listing of recorded pIC50 by entry.
In plain terms, pIC50 is the concentration in mol/L turned into minus its base-10 logarithm.

Consider the following illustrative entries.
CL-82558 (antibody, human IgG4 S228P, kappa, V domains shown, Tested in human IgG4-PE format; also called CL-82558 (IgG4-PE format)) VH: QVQLQESGPGLVKPSQTLSLTCTVSGGSISSGGYYWSWIRQVPGKGLEWIGYISYSGNTFYSPSLKSRVTISVDTSENKFSLRLTSVTAADTAVYFCARDRRIPMLRGVKGYYYGLDVWGQGTTVTVSS VL: DIVMTQSPLSLPVIPGEPASISCRSSQSLLHRNGYKYLDWYLQKPGQSPQLLIYLGSNRASGVPARFSGSGSGTDFTLKISRVEAEDVGVYYCMQALQTPWTFGQGTKVEIKR; 9.24
CL-82658 (antibody, human IgG4 S228P, kappa, V domains shown, Tested in human IgG4-PE format; also called CL-82658 (IgG4-PE format)) VH: QVQLVESGGGVVQPGRSLRLSCAASGFSFSSYGMHWVRQAPGKGLEWVAVISYDGSNKYYADSVKGRFTISRDNSKNTLYLQMNSLRGEDTAVYYCSKGSLTPRRGYYYSYGMDVWGQGTTVTVSS VL: DIQMTQSPSSLSASVGDRVTITCRASQGIRNDLSWYQQKPGKAPKRLIYAASSLQSGVPSRFSGSGSGTEFTLTISSLQPEDFATYYCLQHNGYPFTFGPGTKVDIKR; 8.98

Field: next binder
[in] # lookup: pIC50 of CL-82571 (antibody, human IgG4 S228P, kappa, V domains shown, Tested in human IgG4-PE format) VH: EVQLVESGGGLVQPGGSLKLSCAASGFTFSGSAMHWVRQASGKGLEWVGRIRSKANKYATAYAASVKGRFTISRDDSKNTAYVQMKSLKTEDTAVYYCTWELSNYDILTGFYYGMDVWGQGTTVTVSS VL: DIQMTQSPSTLSASVGDRVTITCRASQSISNWLAWYQQKPGKAPKVLIYKASSLESGVPSRFSGSGSGTEFTLTISSLQPDDFATYYCQQYNSFSWTFGQGTKVEIKR
[out] 8.83
